Hey, just so you know, these numbers are from patent US11691980B2.

# targetOfAssay: PIM2 (Homo sapiens, UniProt Q9P1W9)
# Sequence (Q9P1W9 whole entry): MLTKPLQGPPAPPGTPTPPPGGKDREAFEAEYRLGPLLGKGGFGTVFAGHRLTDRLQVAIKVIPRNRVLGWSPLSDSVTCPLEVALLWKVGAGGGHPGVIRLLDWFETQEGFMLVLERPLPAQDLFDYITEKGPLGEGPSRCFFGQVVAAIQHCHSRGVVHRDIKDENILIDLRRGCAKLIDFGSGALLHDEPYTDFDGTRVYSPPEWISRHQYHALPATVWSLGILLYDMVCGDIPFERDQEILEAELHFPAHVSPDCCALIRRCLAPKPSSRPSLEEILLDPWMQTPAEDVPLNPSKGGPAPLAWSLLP
# assayOverview: IC50 by mobility shift assay
# Format: biochemical
# assaySetup: Table 2, mobility shift assay; read-out: IC50 (μM), Kinase PIM2
IC50 listing for selected molecules.
Number in µM, nothing else.

INSERT INTO measurements (molecule, measuredresult) VALUES
  ('C[C@@H]1CC[C@H]2C(C)(C)CCC[C@]2(C)/C1=C/c1cc(O)c(O)c(C=O)c1O', 6.99),
  ('C[C@H]1CC[C@H]2C(C)(C)CCC[C@]2(C)c2c1oc1c(C=O)c3c(cc21)OCO3', 13.8),
  ('C[C@@H]1CC[C@H]2C(C)(C)CCC[C@]2(C)c2c1oc1c(C=O)c(O)c(O)cc21', 5.31),
  ('C[C@H]1CC[C@H]2C(C)(C)CCC[C@]2(C)c2c1oc1c(C=O)c(O)c(O)cc21', 2.81),
  ('C[C@@H]1CC[C@H]2C(C)(C)CCC[C@]2(C)c2c1oc1c(C=O)c3c(cc21)OCO3', 18);

Consider the additional molecule presented here.
Query C[C@H]1CC[C@H]2C(C)(C)CCC[C@]2(C)/C1=C/c1cc(O)c(O)c(C=O)c1O [SD-2, 8-epi-siphonodictyal B] yields IC50 of 2.79
